- System: DMS-273
- EXPERIMENT_NOTES: NCI tumour cell line growth inhibition, 48 h
Activity calls are given as the source filed them. Rule as the data show it: active = GI50 up to about 1.1 µM and inactive = higher.
Listed molecules paired with reported GI50

CC1(C)CCc2ccc(OCCC(=O)O)cc2O1 = > 100 µM (inactive)
O=C(Cc1nc2ccccc2s1)Nc1ccc(Cl)cc1 = 84.7 µM (inactive)
O=C1Oc2cc3c(c4cccc1c24)OCN(c1ccccc1)C3 = > 100 µM (inactive)

[ask] So what's the measured GI50 for this one? COC(=O)C(CCC1(C)OCCO1)C(C)=O (stereo not given)
[reply] > 100 µM (inactive)

[ask] Here is the next molecule: CC1CCC2CC(=O)OC([C@@H]3C(=O)O[C@@H](C4=CCCC4)C4C(C)CCC43)C12 (stereo not given in full)
[reply] > 100 µM (inactive)

[ask] Thanks! And `Cn1cc(NC(=O)c2cc(NC(=O)CCCCCCCCCC(=O)Nc3cc(C(=O)Nc4cc(C(=O)NCCC(=N)N)n(C)c4)n(C)c3)cn2C)cc1C(=O)NCCC(=N)N` ?
[reply] 33.2 µM (inactive)

[ask] Okay, and `O=C1C=CC(=CC=C2C=CN(CCCCCCCCCCC(=O)NCCCCCCCCCCCC(=O)O)C=C2)C=C1` ?
[reply] > 100 µM (inactive)

[ask] Follow-up entry: CC1C[C@H](OC(N)=O)C(C)CC1=O (stereo not given in full)
[reply] > 100 µM (inactive)

[ask] Now consider `Cc1c2cc[n+](C)cc2c(C)c2c1[nH]c1ccc(OCC(F)(F)F)cc12` and answer again.
[reply] 1.25 µM (inactive)

[ask] Consider next the molecule `Cc1ccc(/C=C/C(=O)c2sc(-c3nc(C)c(C(=O)/C=C/c4ccc(C)cc4)s3)nc2C)cc1` in the same way.
[reply] > 100 µM (inactive)

[ask] Same lookup for C[C@@H]1C[C@@H](O)[C@]2(O)O[C@@H]3C[C@@]4(C=O)[C@@H](CC[C@@H]5[C@@H]4CC[C@]4(C)[C@@H](C6=CC(=O)OC6)CC[C@]54O)C[C@H]3O[C@@H]2O1 [CALACTIN] , please.
[reply] 0.00455 µM (active)

[ask] Moving on to `COc1cc(CCc2ccc(OC(C)=O)cc2)cc(OC)c1OC`
[reply] > 100 µM (inactive)

[ask] Follow-up entry: `CCCCOC(=O)CNC(=O)OCCCCC#CC#CCCCCOC(=O)NCC(=O)OCCCC`
[reply] > 100 µM (inactive)

[ask] Check `Cc1cc(C)nc(NS(=O)(=O)c2ccc(Nc3c4ccccc4nc4c(C(=O)Nc5ccc(S(=O)(=O)N=C(N)N)cc5)ccc(Cl)c34)cc2)n1` too.
[reply] 32.1 µM (inactive)

[ask] Also CCCNCCCC(NC(C)=O)C(=O)NCc1ccccc1 (stereo not given) , if possible.
[reply] > 100 µM (inactive)

---

- Tested on: Malme-3M
- EXPERIMENT_NOTES: NCI tumour cell line growth inhibition, 48 h
The source made the active and inactive calls. Rule as the data show it: active = GI50 up to about 1.1 µM and inactive = higher.
Examples of molecules with documented GI50 follow.

Reference set (5 entries):
O=c1[nH][nH]c(=O)c2c1ccc1oc3ccccc3c12 = > 100 µM (inactive)
N#COc1ccc(Oc2ccccc2)cc1 = > 100 µM (inactive)
C[n+]1ccccc1/C=C/c1ccc2c(c1)OCO2 = > 10 µM (inactive)
CCOC(=O)C(=O)/C(=C\NC(=S)Nc1ccccc1Cl)C(=O)OCC = > 100 µM (inactive)
COC(=O)CC[C@@H](C)[C@H]1CC[C@H]2[C@@H]3CC[C@@H]4C[C@H](O)CC[C@]4(C)[C@H]3CC[C@]12C = 17 µM (inactive)

[ask] What value of measured GI50 is listed for CC1=NN(c2ccccc2Cl)C2(C1)C(Cl)C(=O)N2c1nc2ccccc2s1 (centres undefined) ?
[reply] 92.5 µM (inactive)

[ask] Repeat for the following molecule: `CC1=C(NC(=O)/C(=N/NC(=S)NN)C2C(=O)CC(C)(C)CC2=O)C(=O)c2ccccc2C1=O`
[reply] 16 µM (inactive)

[ask] Then what about the molecule `Cc1c(NC(=S)Nc2ccc([N+](=O)[O-])cc2)c(=O)n(-c2ccccc2)n1C` ?
[reply] > 100 µM (inactive)
